Values from ChEMBL document CHEMBL4371067

Test details: Permeability in human Caco2/TC7 cells at 5 uM
Assay type: ADME, cell-based
Measurement conditions: Caco-2, read-out: permeability
Field: label. Allowed values: yes (1) (Papp at 5 µM < 1 ×10⁻⁶ cm/s) or no (0) (Papp at 5 µM >= 1 ×10⁻⁶ cm/s).

>>> group_label("CC1(C#Cc2c(Cl)c3c(Cl)cc(C(N)=O)nc3n2[C@H]2CCCNC2)COC1")
"no (0)"
>>> group_label("NC(=O)c1cc(Cl)c2c(Cl)c(C#CCCO)n([C@H]3CCCNC3)c2n1")
"yes (1)"
>>> group_label("CC1(CC#Cc2c(Cl)c3c(Cl)cc(C(N)=O)nc3n2[C@H]2CCCNC2)COC1")
"no (0)"
>>> group_label("CC(O)CC#Cc1c(Cl)c2c(Cl)cc(C(N)=O)nc2n1[C@H]1CCCNC1 (some centres not stated)")
"yes (1)"
>>> group_label("NC(=O)c1cc(Cl)c2c(Cl)c(C#CC3CCCO3)n([C@H]3CCCNC3)c2n1 (stereo in doubt; 20a)")
"no (0)"
>>> group_label("COCCC#Cc1c(Cl)c2c(Cl)cc(C(N)=O)nc2n1[C@H]1CCCNC1")
"no (0)"
>>> group_label("CC(C)(CC#Cc1c(Cl)c2c(Cl)cc(C(N)=O)nc2n1[C@H]1CCCNC1)C(N)=O")
"yes (1)"
>>> group_label("CC(O)C#Cc1c(Cl)c2c(Cl)cc(C(N)=O)nc2n1[C@H]1CCCNC1 (some centres not stated)")
"yes (1)"

Prompt: Does `NC(=O)c1cc(Cl)c2c(Cl)c(C#CC3CC3)n([C@H]3CCCNC3)c2n1` have Papp at 5 µM strictly under 1 ×10⁻⁶ cm/s?
Completion: no (0)

Prompt: Likewise for `CC(C)(C#N)CC#Cc1c(Cl)c2c(Cl)cc(C(N)=O)nc2n1[C@H]1CCCNC1` ?
Completion: no (0)

Prompt: Cool, now `COCC(C)(C)C#Cc1c(Cl)c2c(Cl)cc(C(N)=O)nc2n1[C@H]1CCCNC1`
Completion: no (0)

Prompt: Now give it for CN1CC(C#Cc2c(Cl)c3c(Cl)cc(C(N)=O)nc3n2[C@H]2CCCNC2)CC1=O (some centres not stated) too.
Completion: yes (1)

Prompt: Next up: `NC(=O)c1cc(Cl)c2c(Cl)c(C#CCN3CCCC3=O)n([C@H]3CCCNC3)c2n1`
Completion: yes (1)

Prompt: Next: `COC(C)(C)CC#Cc1c(Cl)c2c(Cl)cc(C(N)=O)nc2n1[C@H]1CCCNC1`
Completion: no (0)

Prompt: Now try `NC(=O)c1cc(Cl)c2c(Cl)c(C#CC3CCOCC3)n([C@H]3CCCNC3)c2n1` .
Completion: no (0)

Prompt: Follow-up entry: `NC(=O)c1cc(Cl)c2c(Cl)c(C#CCO)n([C@H]3CCCNC3)c2n1`
Completion: yes (1)

Prompt: Another: `CC(C)(O)C#Cc1c(Cl)c2c(Cl)cc(C(N)=O)nc2n1[C@H]1CCCNC1`
Completion: yes (1)
